tested on: NCI-H522 lung; experiment: NCI tumour cell line growth inhibition, 48 h

compound: CC1CN(c2ccc(Cl)cc2)CC(C)(C)OC(=O)O1 (stereo not given)
target: NCI-H522 lung
TGI: > 100 µM
--
compound: CCC(=O)C1(N2CCOCC2)CCN(CCCC(=O)c2ccc(F)cc2)CC1
target: NCI-H522 lung
TGI: > 100 µM
--
compound: Cc1ccc(/C=N/Nc2nc3ccccc3s2)s1
target: NCI-H522 lung
TGI: > 100 µM
--
compound: CN[C@@H](C)C(=O)N[C@H]1CN(C(=O)CC(C)C)CC[C@H]2CC[C@@H](C(=O)NC(c3ccccc3)c3ccccc3)N2C1=O
target: NCI-H522 lung
TGI: > 78.9 µM
--
compound: O=C1OC(c2ccccc2)=N/C1=C\c1ccc2ccccc2c1
target: NCI-H522 lung
TGI: > 100 µM
